# System: CCRIS mutagenicity, Ames/micronucleus/aberration tests
# run-description: CCRIS mutagenicity studies
# reported-conditions: Test System: AMES SALMONELLA TYPHIMURIUM; Strain/Indicator: TA98; Metabolic Activation: NONE; Method: STANDARD PLATE
The source made the active and inactive calls. How the calls were made is not given here.
I would appreciate it if you answered using one of these outcomes: active, inactive

molecule: O=CCCCC=O
discrete-label: inactive

## Task # lookup: test call for O=C1C=CC(=O)c2ccccc21
## Result inactive

## Task Now consider Cc1c(N=O)c(=O)n(-c2ccccc2)n1C .
## Result active

## Task Try N#Cc1ccccc1 next.
## Result inactive

## Task Do the same for CN(C)CCCN1c2ccccc2Sc2ccc(Cl)cc21 please
## Result inactive

## Task Entry CN(C)C(=O)Oc1ccc[n+](C)c1 please
## Result inactive

## Task Same read-out for O=[N+]([O-])c1c2ccccc2cc2c1ccc1ccccc12 ?
## Result inactive
